A collection of compounds and their measured GI50
# Test system: HCC 2998
# experiment-summary: NCI tumour cell line growth inhibition, 48 h
The source made the active and inactive calls. Cut-off read from the data, not from the text of the source: active = GI50 up to about 1.1 µM and inactive = higher.

compound	GI50
COc1ccc(/C(C)=N/NC(=O)c2ccncc2)cc1OC	> 10 µM (inactive)
CC(=O)CCCCC(=O)Nc1ccc(CC(NC(=O)OC(C)(C)C)C(=O)NCC(=O)OCc2ccccc2)cc1 (centres undefined)	16.4 µM (inactive)
O=C1OC(c2ccccc2)N(C(=O)c2ccccc2)C1Cc1ccc(OCc2ccccc2)cc1 (centres undefined)	21.8 µM (inactive)
Cc1cc(O)c(C(C)C)cc1SC#N	17.2 µM (inactive)
Cc1c(C#N)c2nnn(-c3cccc(Cl)c3)c(=O)n2c1-c1ccccc1	3.48 µM (inactive)
Cn1c(N=[N+]=[N-])cc(=O)n(C)c1=O	> 100 µM (inactive)
N#Cc1nnc2c3c(-c4ccc(Cl)cc4)c(C#N)c(O)nc3nn2c1N	3.14 µM (inactive)
Cc1cn2c(/C=C3/C(=O)Nc4ccccc43)c(-c3ccccc3)nc2s1	> 100 µM (inactive)
C/C=C(/C)C(=O)O[C@H]1CCN2CC=C(COC(=O)[C@@](O)([C@H](C)OC)C(C)(C)O)[C@H]12	> 100 µM (inactive)

* * *

# Test system: MDA-MB-435
# experiment-summary: NCI tumour cell line growth inhibition, 48 h
Active and inactive are the calls of the source. Cut-off read from the data, not from the text of the source: active = GI50 up to about 1.1 µM and inactive = higher.

molecule	GI50
C=C(C)C(CC=C(C)C)Cc1c(O)cc(OC)c2c1OC(c1ccc(O)cc1O)C(O)C2=O (centres undefined)	16.9 µM (inactive)
CCOC(=O)c1c(NC(=O)Nc2ccccc2)c(C(N)=O)c2n1CCCCC2	> 100 µM (inactive)
C(/Cc1ccc2c(c1)OCO2)=N\N=C1NCCCN1	> 100 µM (inactive)
CCCOc1ccc(/C=C/C2=[N+](CCO)CCO2)cc1	> 100 µM (inactive)

* * *

# Test system: SF-268
# experiment-summary: NCI tumour cell line growth inhibition, 48 h
Activity calls are given as the source filed them. No stated cut-off is given here; in the data, active = GI50 up to about 1.1 µM and inactive = higher.
A collection of compounds and their measured GI50

compound	GI50
C/C(C=O)=N\Nc1cc(C)c2ccccc2n1	16.9 µM (inactive)
Cc1ccc(Nc2nnc3n2S(=O)(=O)c2cc(C)c(Cl)cc2S3)cc1	4.25 µM (inactive)
CC(C)(Cc1ccccc1)Cc1cc(O)ccc1O	13.9 µM (inactive)
[O-][S+](Nc1ccccc1)c1ccc(Cl)c(Cl)c1 (stereo not drawn)	26.4 µM (inactive)
CC(C)COC1Sc2ccccc2S1	23.1 µM (inactive)
CCCCc1ccc(Nc2nc3c(ncn3C3CC(O)C(CN=[N+]=[N-])O3)c(=O)[nH]2)cc1 (stereo not drawn)	> 100 µM (inactive)
O=c1oc2ccc3ccccc3c2cc1-c1nc2ccc([N+](=O)[O-])cc2o1	20.5 µM (inactive)
C=C(C)C(=O)O[C@@H]1C[C@@]2(C)O[C@@H]2C[C@H](O)/C(C)=C/[C@H]2OC(=O)C(=C)[C@@H]21	> 100 µM (inactive)
CCOC(=O)c1nnsc1NC(=O)NN	> 100 µM (inactive)
COC(=O)c1ccccc1CC1Cc2c(C)ccc(C)c2C1=O (stereo not drawn)	29.6 µM (inactive)
Cc1ccc2c(/C=C/c3ccc(N(C)C)cc3)ccc(C(C)C)cc1-2	> 100 µM (inactive)
NCCCNCc1c2ccccc2c(CNCCCN)c2ccccc12	5.12 µM (inactive)
CCOC(=O)c1nc2ccc(C(F)(F)F)cc2nc1Oc1ccc(OC)cc1	> 100 µM (inactive)

* * *

# System: K562
# experiment-summary: NCI tumour cell line growth inhibition, 48 h
Activity calls are given as the source filed them. Rule as the data show it: active = GI50 up to about 1.1 µM and inactive = higher.
result-type: GI50

molecule	system-tested	result-type	result
CCOC(=N)/C(=C1\OC(=N)C(c2ccc(Cl)cc2)=C1O)c1ccc(Cl)cc1	K562	GI50	19.8 µM (inactive)
CC1(C)C2CCC13C(=O)C1OC3(C2)C2C(=O)N(c3ccccc3)C(=O)C12 (configuration not stated)	K562	GI50	> 100 µM (inactive)
COc1ccc(C[C@H]2NC[C@H](OC(C)=O)[C@H]2OC(C)=O)cc1	K562	GI50	0.221 µM (active)
C=C1CC(O)C2C(=C)C(=O)OC2C2C(C)C(=O)CC12 (configuration not stated)	K562	GI50	5.98 µM (inactive)
Cc1ccc(S(=O)(=O)N/N=C2/CCCOC2)cc1	K562	GI50	> 100 µM (inactive)
CCOC(=O)c1ccc(Nc2nc3cc(C(F)(F)F)ccc3nc2-c2ccccc2)cc1	K562	GI50	> 100 µM (inactive)
COC1=C(C)C(=O)c2c(c(COC(N)=O)c3n2CC2C3N2C)C1=O (configuration not stated)	K562	GI50	0.051 µM (active)
O=C(CCl)N1CCN(c2ccccn2)CC1	K562	GI50	31.7 µM (inactive)
COC(=O)[C@H](Cc1ccccc1)NC(=O)c1ccc(CNC(=O)/C=C/c2csc(-c3ccccc3)n2)cc1	K562	GI50	1.93 µM (inactive)
c1ccc(-c2nc3sccn3n2)cc1	K562	GI50	> 100 µM (inactive)
C/C(C=O)=N\Nc1cc(C)c2ccccc2n1	K562	GI50	13.4 µM (inactive)
COC(=O)C(Cc1ccc2c(c1)CCCC2)Cc1cc2c(cc1C(O)OC)CCC2 (configuration not stated)	K562	GI50	35.1 µM (inactive)

* * *

# Test system: NCI-H522
# experiment-summary: NCI tumour cell line growth inhibition, 48 h
Calls of active or inactive are those of the source. Rule as the data show it: active = GI50 up to about 1.1 µM and inactive = higher.
Classes used: 1 for active, 0 for inactive

molecule	category-label
C=CCOCn1cc(C)c(=O)[nH]c1=O	0
NC(=O)c1nnc2cc(F)ccc2c1N	0
Cc1ccc(C)c(NC(=O)C(=O)C(C(=O)c2ccc3ccccc3c2)C2OC(=O)c3ccccc32)c1 (configuration not stated)	0
C/C=C(/CCC1NCCC2c3ccccc3NC12)[Si](C)(C)C (configuration not stated)	0
CC(C)=CC1CC(=O)C1(C)Sc1ccccc1 (configuration not stated)	0
COC(=O)[C@]12CCC(C)(C)C[C@H]1[C@H]1C(=O)C=C3[C@@]4(C)C=C(C#N)C(=O)C(C)(C)[C@@H]4CC[C@@]3(C)[C@]1(C)CC2	1
COC1=C[C@]2(CCC(=O)O2)[C@@H]2Cc3ccccc3[C@H](O)[C@@H]2C1=O	0

* * *

# System: CAKI-1
# experiment-summary: NCI tumour cell line growth inhibition, 48 h
The source made the active and inactive calls. Cut-off read from the data, not from the text of the source: active = GI50 up to about 1.1 µM and inactive = higher.
Classes used: active, inactive

compound	category-label
NC1NCCC(=O)N1CCc1c[nH]c2ccccc12 (configuration not stated)	inactive
NCCCNCc1c2ccccc2c(CNCCCN)c2ccccc12	inactive
COC1=C(C)C(=O)c2c(c(COC(N)=O)c3n2CC2C3N2C)C1=O (configuration not stated)	active
CC(C)(Cc1ccccc1)Cc1cc(O)ccc1O	inactive
O=C1/C(=C\c2cccc(Oc3ccccc3)c2)SC(c2ccccc2)N1Cc1ccccc1 (configuration not stated)	inactive
N#C[BH2-][n+]1ccc(C(=O)NNCC(F)(F)F)cc1	inactive
O=C(NNC(=O)/C(=C/c1cccc([N+](=O)[O-])c1)NC(=O)c1ccccc1)Nc1ccc(Cl)cc1	inactive

* * *

# System: CCRF-CEM
# experiment-summary: NCI tumour cell line growth inhibition, 48 h
The source made the active and inactive calls. No stated cut-off is given here; in the data, active = GI50 up to about 1.1 µM and inactive = higher.

compound	GI50
O=C(O)c1cccc(SSc2cccc(C(=O)O)c2)c1	28.8 µM (inactive)
O=C(Nc1cccc(C(F)(F)F)c1)C(=O)C1NC(=S)NC1=O (centres undefined)	54.5 µM (inactive)
c1cc2cc(Cc3ccc4[nH]ccc4c3)ccc2[nH]1	21.9 µM (inactive)
Nc1nc2c3c(ncn3CC(O)CO2)n1 (centres undefined)	> 100 µM (inactive)

* * *

# Test system: MDA-N
# experiment-summary: NCI tumour cell line growth inhibition, 48 h
Active and inactive are the calls of the source. Rule as the data show it: active = GI50 up to about 1.1 µM and inactive = higher.
A collection of compounds and their measured GI50
result-type: GI50

compound	system-tested	result-type	result
C=CC[C@@]1(C)CCCCCCCCC[C@@](C)(CC=C)C1=O	MDA-N	GI50	50.8 µM (inactive)
Cn1c2ccccc2n2c(=O)c(-c3ccc(Cl)cc3)nnc12	MDA-N	GI50	> 100 µM (inactive)
C=C1CC(O)C2C(=C)C(=O)OC2C2C(C)C(=O)CC12 (stereo not drawn)	MDA-N	GI50	6.87 µM (inactive)
C[n+]1c2ccccc2n2c3ccccc3c(NCCCn3ccnc3)c(C#N)c21	MDA-N	GI50	2.7 µM (inactive)
OCCSCc1cc2c(O)c(c1)Cc1cc(CSCCO)cc(c1O)Cc1cc(CSCCO)cc(c1O)Cc1cc(CSCCO)cc(c1O)C2	MDA-N	GI50	3.42 µM (inactive)
O=c1[nH]c2ccc(CC(=S)N3CCN(c4ccccc4)CC3)cc2o1	MDA-N	GI50	> 49.9 µM (inactive)
C[C@@H](NC(=O)Cn1c(Cl)nc2ccccc21)c1ccccc1	MDA-N	GI50	> 100 µM (inactive)
C#CC(O)/C=C/C(O)CCCC(O)CC#CC(O)C#CCCCCC(O)/C=C/CCCCCC(=O)CCCCCCCCCCCCCC(O)C(O)C#CC(=O)O (stereo not drawn)	MDA-N	GI50	> 25 µM (inactive)
COc1c2ccoc2nc2c(OC)c(OCC(O)C(C)(C)O)ccc12 (stereo not drawn)	MDA-N	GI50	> 100 µM (inactive)
C(=C\c1ccccc1)/C=N/c1nc2cc3sc(/N=C/C=C/c4ccccc4)nc3cc2s1	MDA-N	GI50	> 72.1 µM (inactive)
COc1cc(/C=C2\CCC(CN(C)C)C2=O)ccc1OC(=O)c1ccccc1 (stereo not drawn)	MDA-N	GI50	15.4 µM (inactive)
CCOc1ccc(-c2nc(-c3oc4ccccc4c(=O)c3OC(C)=O)cs2)cc1	MDA-N	GI50	6.18 µM (inactive)
OCC1CCCCCCCCCCC12SCCCS2 (stereo not drawn)	MDA-N	GI50	> 100 µM (inactive)

Cited source for all entries: ChEMBL document CHEMBL1201862
